Target: human ether-à-go-go-related gene (hERG) potassium channel (human)
Sequence (Q12809 whole entry, looked up): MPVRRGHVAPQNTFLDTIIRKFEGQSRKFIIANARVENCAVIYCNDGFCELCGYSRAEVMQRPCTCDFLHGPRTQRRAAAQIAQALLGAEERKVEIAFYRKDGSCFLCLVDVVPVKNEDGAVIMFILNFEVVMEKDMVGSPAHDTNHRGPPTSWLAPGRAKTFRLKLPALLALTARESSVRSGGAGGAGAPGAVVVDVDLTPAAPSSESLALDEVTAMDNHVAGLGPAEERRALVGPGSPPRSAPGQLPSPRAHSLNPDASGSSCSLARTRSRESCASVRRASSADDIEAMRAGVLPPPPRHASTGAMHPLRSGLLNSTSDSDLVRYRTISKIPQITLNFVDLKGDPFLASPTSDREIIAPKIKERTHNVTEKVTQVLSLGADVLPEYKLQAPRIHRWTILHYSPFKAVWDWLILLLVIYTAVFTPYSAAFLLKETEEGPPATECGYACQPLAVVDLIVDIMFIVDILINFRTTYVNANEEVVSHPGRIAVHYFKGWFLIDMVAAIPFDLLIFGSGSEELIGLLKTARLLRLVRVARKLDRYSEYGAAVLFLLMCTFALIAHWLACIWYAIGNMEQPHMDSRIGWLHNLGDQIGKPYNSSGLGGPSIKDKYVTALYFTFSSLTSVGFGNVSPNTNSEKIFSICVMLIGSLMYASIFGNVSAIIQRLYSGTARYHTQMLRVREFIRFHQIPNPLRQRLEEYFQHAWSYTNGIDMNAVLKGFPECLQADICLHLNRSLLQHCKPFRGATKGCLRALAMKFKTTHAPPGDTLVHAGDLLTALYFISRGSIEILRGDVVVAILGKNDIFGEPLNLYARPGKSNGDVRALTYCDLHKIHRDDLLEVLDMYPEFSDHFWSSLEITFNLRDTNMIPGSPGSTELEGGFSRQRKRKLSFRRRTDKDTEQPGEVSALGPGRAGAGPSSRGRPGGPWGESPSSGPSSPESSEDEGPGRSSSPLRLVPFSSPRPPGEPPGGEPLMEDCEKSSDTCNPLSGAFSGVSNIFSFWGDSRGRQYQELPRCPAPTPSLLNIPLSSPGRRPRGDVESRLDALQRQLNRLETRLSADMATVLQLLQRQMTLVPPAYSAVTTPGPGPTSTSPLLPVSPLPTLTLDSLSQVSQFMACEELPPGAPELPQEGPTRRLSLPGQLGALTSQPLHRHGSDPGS
Assay: primary screen, population patch clamp on CHO cells stably expressing hERG; higher = less effect of the substance
The campaign covered roughly 310,000 compounds. About 14,000 (4.5%) showed an effect of 50% or more. The effect is printed as a negative number. This is one part of a sample in which strong results are shown more often than they occur.
readout-type: hERG current change (%, negative = inhibition) at 10uM (%)

structure-string: O=C(Nc1ccccc1)OCCOc1cccc(Br)c1
measured-target: human ether-à-go-go-related gene (hERG) potassium channel (human)
value-unit: %
recorded-value: 1.49

structure-string: Cc1cc(Cl)cc(Cl)c1OCCN1CCCC1
measured-target: human ether-à-go-go-related gene (hERG) potassium channel (human)
value-unit: %
recorded-value: -55

structure-string: Cc1cc(Cl)c(OCCOCCN2CCNCC2)c(Cl)c1.O=C(O)C(=O)O
measured-target: human ether-à-go-go-related gene (hERG) potassium channel (human)
value-unit: %
recorded-value: -7.47

structure-string: O=C(CN(Cc1ccc(Cl)cc1)C(=O)c1csnn1)NCc1ccccc1
measured-target: human ether-à-go-go-related gene (hERG) potassium channel (human)
value-unit: %
recorded-value: -56.7

structure-string: CN(CC(=O)Nc1ccc2c(c1)OCO2)S(=O)(=O)c1ccc(F)cc1
measured-target: human ether-à-go-go-related gene (hERG) potassium channel (human)
value-unit: %
recorded-value: -4.45

structure-string: COc1ccc(CNC(=O)CN(Cc2ccccc2Cl)C(=O)c2csnn2)cc1
measured-target: human ether-à-go-go-related gene (hERG) potassium channel (human)
value-unit: %
recorded-value: -34.8

structure-string: COc1ccc(NC(=O)c2sccc2OS(=O)(=O)N(C)C)cc1
measured-target: human ether-à-go-go-related gene (hERG) potassium channel (human)
value-unit: %
recorded-value: 11.2

structure-string: O=S(=O)(c1ccccc1F)N1CCN(CCc2ccccc2)CC1
measured-target: human ether-à-go-go-related gene (hERG) potassium channel (human)
value-unit: %
recorded-value: -5.81

structure-string: O=C(CN(Cc1ccccc1)C(=O)c1csnn1)NCc1ccccc1
measured-target: human ether-à-go-go-related gene (hERG) potassium channel (human)
value-unit: %
recorded-value: 8.5

structure-string: C=CCN1N=C(/C=C/c2ccc(OC)cc2)CCC1=O
measured-target: human ether-à-go-go-related gene (hERG) potassium channel (human)
value-unit: %
recorded-value: 6.48

structure-string: O=C(NCCN1CCOCC1)c1cccc(NS(=O)(=O)c2ccc(Br)cc2)c1
measured-target: human ether-à-go-go-related gene (hERG) potassium channel (human)
value-unit: %
recorded-value: -34.3

structure-string: CCOc1ccc(OCCSc2nc(N)cc(=O)[nH]2)cc1
measured-target: human ether-à-go-go-related gene (hERG) potassium channel (human)
value-unit: %
recorded-value: 1.58

structure-string: O=C(CN(Cc1ccc(F)cc1)C(=O)c1csnn1)NCc1ccccc1
measured-target: human ether-à-go-go-related gene (hERG) potassium channel (human)
value-unit: %
recorded-value: -31.6

structure-string: C=CCN(CC(=O)NCc1ccc(F)cc1)C(=O)c1csnn1
measured-target: human ether-à-go-go-related gene (hERG) potassium channel (human)
value-unit: %
recorded-value: -18.2

structure-string: COc1cc(C(=O)N/N=C/c2cc([N+](=O)[O-])cs2)cc(OC)c1OC
measured-target: human ether-à-go-go-related gene (hERG) potassium channel (human)
value-unit: %
recorded-value: -8.26

structure-string: c1ccc(SCc2cn3cccnc3n2)nc1
measured-target: human ether-à-go-go-related gene (hERG) potassium channel (human)
value-unit: %
recorded-value: 15.1

structure-string: O=C(CN(C(=O)c1csnn1)c1cccc2c1CCCC2)NCc1ccccc1
measured-target: human ether-à-go-go-related gene (hERG) potassium channel (human)
value-unit: %
recorded-value: -5.19

structure-string: CC(=O)c1cccc(NS(=O)(=O)c2cc3c(cc2C)N(C(C)=O)CCO3)c1
measured-target: human ether-à-go-go-related gene (hERG) potassium channel (human);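 note: peak tail current of the secondary pulse compared with the same well before compound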
value-unit: %
recorded-value: 14.3

structure-string: O=C(CN(Cc1ccccc1Cl)C(=O)c1csnn1)NCc1ccccc1
measured-target: human ether-à-go-go-related gene (hERG) potassium channel (human);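 note: peak tail current of the secondary pulse compared with the same well before compound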
value-unit: %
recorded-value: -24

structure-string: CCN(CC)CCCNC(=O)c1[nH]c(C)c(C(=O)NC2CCCCC2)c1C
measured-target: human ether-à-go-go-related gene (hERG) potassium channel (human);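 note: peak tail current of the secondary pulse compared with the same well before compound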
value-unit: %
recorded-value: 12.9

structure-string: CS(=O)(=O)c1cccc(C(=O)NCc2ccccc2)c1
measured-target: human ether-à-go-go-related gene (hERG) potassium channel (human);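 note: peak tail current of the secondary pulse compared with the same well before compound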
value-unit: %
recorded-value: -0.394
